System: Leishmania donovani axenic amastigote parasites
assay.remarks: Leishmania donovani axenic amastigote proliferation assay (Cell TiterGlo luminescence, 2 day incubation)
Assay type: cell-based
stated.conditions: axenic amastigotes, inhibition of proliferation; read-out: L. donovani amastigotes EC50
Parameter: EC50. Scope: all listed entries.

{"molecule": "Cc1nc(C)c(C(=O)Nc2ccc(F)c(-c3cn4cc(NC(=O)C5CCCCO5)cnc4n3)c2)o1 (single isomer, unassigned) [Compound 185]", "measured.on": "Leishmania donovani axenic amastigote parasites", "EC50, nM": 462}
{"molecule": "CON(C)C(=O)Nc1cccc(-c2cn3cc(NC(=O)OC(C)C)cnc3n2)c1", "measured.on": "Leishmania donovani axenic amastigote parasites", "EC50, nM": 533}
{"molecule": "Cc1nc(C)c(C(=O)Nc2ccc(F)c(-c3cn4cc(NC(=O)C5CCCCO5)cnc4n3)c2)o1 (single isomer, unassigned) [Compound 184]", "measured.on": "Leishmania donovani axenic amastigote parasites", "EC50, nM": 146}

---

Parameter: EC50. Scope: all listed entries.
Test system: Leishmania donovani axenic amastigote parasites
assay.remarks: Leishmania donovani axenic amastigote proliferation assay (Cell TiterGlo luminescence, 2 day incubation)
Format: cell-based
stated.conditions: Leishmania donovani, L. donovani axenic amastigotes; read-out: L. donovani amastigotes EC50
measure.name: EC50 (µM)

{"test.smiles": "Cc1nc(C)c(C(=O)Nc2ccc(F)c(-c3cn4cc(NC5=NC(C)(C)CO5)cnc4n3)c2)o1", "measure.name": "EC50", "unit.symbol": "µM", "readout.value": 1.17}
{"test.smiles": "Cc1nc(C)c(C(=O)Nc2ccc(F)c(-c3cn4cc(NC(=O)OCCCCl)cnc4n3)c2)o1", "measure.name": "EC50", "unit.symbol": "µM", "readout.value": 0.244}
{"test.smiles": "Cc1nc(C)c(C(=O)Nc2ccc(F)c(-c3cn4cc(NC(C)C)cnc4n3)c2)o1", "measure.name": "EC50", "unit.symbol": "µM", "readout.value": 0.209}
{"test.smiles": "Cc1nc(C)c(C(=O)Nc2ccc(F)c(-c3cn4cc(-c5cnccc5C)cnc4n3)c2)o1", "measure.name": "EC50", "unit.symbol": "µM", "readout.value": 0.087}
{"test.smiles": "Cc1nc(C)c(C(=O)Nc2ccc(F)c(-c3cn4cc(N5CCC[C@@H]5C(F)(F)F)cnc4n3)c2)o1", "measure.name": "EC50", "unit.symbol": "µM", "readout.value": 0.841}
{"test.smiles": "Cc1nc(C)c(C(=O)Nc2ccc(F)c(-c3cn4cc(-c5cnn(C6CCOCC6)c5)cnc4n3)c2)o1", "measure.name": "EC50", "unit.symbol": "µM", "readout.value": 0.268}
{"test.smiles": "COCCOc1cnc2nc(-c3cc(NC(=O)c4oc(C)nc4C)ccc3F)cn2c1", "measure.name": "EC50", "unit.symbol": "µM", "readout.value": 0.856}
{"test.smiles": "O=C(Nc1ccc(F)c(-c2cn3cc(C4CCOCC4)cnc3n2)c1)N1CCCC1", "measure.name": "EC50", "unit.symbol": "µM", "readout.value": 0.077}
{"test.smiles": "Cc1nc(C)c(C(=O)Nc2ccc(F)c(-c3cn4cc(N5C[C@@H](C)O[C@@H](C)C5)cnc4n3)c2)o1", "measure.name": "EC50", "unit.symbol": "µM", "readout.value": 0.234}
{"test.smiles": "Cc1nc(C)c(C(=O)Nc2ccc(F)c(-c3cn4cc(-c5cnn(C)c5)cnc4n3)c2)o1", "measure.name": "EC50", "unit.symbol": "µM", "readout.value": 0.097}
{"test.smiles": "Cc1nc(C)c(C(=O)Nc2ccc(F)c(-c3cn4cc(CC(F)(F)F)cnc4n3)c2)o1", "measure.name": "EC50", "unit.symbol": "µM", "readout.value": 0.078}
{"test.smiles": "Cc1nc(C)c(C(=O)Nc2ccc(F)c(-c3cn4cc(-c5ccnn5C)cnc4n3)c2)o1", "measure.name": "EC50", "unit.symbol": "µM", "readout.value": 0.147}
{"test.smiles": "Cc1nc(C)c(C(=O)Nc2ccc(F)c(-c3cn4cc(CN(C)C)cnc4n3)c2)o1", "measure.name": "EC50", "unit.symbol": "µM", "readout.value": 3.44}
{"test.smiles": "CC(C)OC(=O)Nc1cnc2nc(-c3cc(Nc4nccc5ccoc45)ccc3F)cn2c1", "measure.name": "EC50", "unit.symbol": "µM", "readout.value": 0.641}
{"test.smiles": "O=C(Nc1ccc(F)c(-c2cn3cc(NCCC(F)(F)F)cnc3n2)c1)N1CCCC1", "measure.name": "EC50", "unit.symbol": "µM", "readout.value": 4.72}
{"test.smiles": "O=C(Nc1cnc2nc(-c3ccc(F)c(NC(=O)N4CCCC4)c3)cn2c1)OCc1ccccc1", "measure.name": "EC50", "unit.symbol": "µM", "readout.value": 0.958}

---

System: Trypanosoma cruzi amastigotes (Tulahuen strain expressing Lac-Z) cultured in 3T3 fibroblast cells
assay.remarks: microbe, parasite or virus in culture
Type: cell-based
stated.conditions: Trypanosoma cruzi, TULAHUEN, Fibroblast, T. cruzi amastigotes in 3T3 fibroblast cells; read-out: T cruzi EC50
measure.name: EC50

{"compound": "CC(C)Nc1cnc2nc(-c3cc(NC(=O)N4CC(F)(F)C4)ccc3F)cn2c1 [Compound 460]", "readout.value": "182 nM"}
{"compound": "Cc1nnc(C(=O)Nc2cccc(-c3cn4cc(NC(=O)OC(C)C)cnc4n3)c2)o1 [Compound 526]", "readout.value": "> 20000 nM"}
{"compound": "Cc1nc(C)c(C(=O)Nc2ccc(F)c(-c3cn4cc(NC(=O)OCCCCl)cnc4n3)c2)o1 [Compound 519]", "readout.value": "3260 nM"}
{"compound": "Cc1nc(C)c(C(=O)Nc2ccc(F)c(-c3cn4cc(-c5ccncc5)cnc4n3)c2)o1 [Compound 377]", "readout.value": "137 nM"}
{"compound": "CNc1ccc(-c2cnc3nc(-c4cc(NC(=O)c5oc(C)nc5C)ccc4F)cn3c2)nc1 [Compound 432]", "readout.value": "21 nM"}
{"compound": "Cc1nc(C)c(C(=O)Nc2ccc(F)c(-c3cn4cc(-c5ccc(F)cc5)cnc4n3)c2)o1 [Compound 396]", "readout.value": "17 nM"}
{"compound": "Cc1nc(C)c(C(=O)Nc2ccc(F)c(-c3cn4cc(-c5cnn(C6CCN(C(=O)OC(C)(C)C)CC6)c5)cnc4n3)c2)o1 [Compound 384]", "readout.value": "115 nM"}
{"compound": "CC(C)OC(=O)Nc1cnc2nc(-c3cc(NC4=NC(C)(C)CO4)ccc3F)cn2c1 [Compound 500]", "readout.value": "> 20000 nM"}
{"compound": "CC(C)OC(=O)Nc1cnc2nc(-c3cc(N4C(=O)c5ccccc5C4=O)ccc3Cl)cn2c1 [Compound 530]", "readout.value": "> 20000 nM"}
{"compound": "Cc1nc(C)c(C(=O)N(c2ccc(F)c(-c3cn4cc(OC(C)C)cnc4n3)c2)C(C)C)o1 [Compound 612]", "readout.value": "3810 nM"}
{"compound": "O=C(Nc1ccc(F)c(-c2cn3cc(-c4ccccc4)cnc3n2)c1)c1ccc(F)o1 [Compound 576]", "readout.value": "50 nM"}
{"compound": "O=C(Nc1ccc(F)c(-c2cn3cc(-c4cccnc4)cnc3n2)c1)N1CC(F)(F)C1 [Compound 402]", "readout.value": "251 nM"}
{"compound": "Cc1nc(C)c(C(=O)Nc2ccc(F)c(-c3cn4cc(-c5ncccc5F)cnc4n3)c2)o1 [Compound 449]", "readout.value": "22 nM"}
{"compound": "Cc1nc(C)c(C(=O)Nc2ccc(F)c(-c3cn4cc(-c5ccc[nH]5)cnc4n3)c2)o1 [Compound 573]", "readout.value": "462 nM"}
{"compound": "Cc1cnc(-c2cnc3nc(-c4cc(NC(=O)c5oc(C)nc5C)ccc4F)cn3c2)cn1 [Compound 452]", "readout.value": "45 nM"}
{"compound": "Cc1nc(C)c(C(=O)Nc2ccc(F)c(-c3cn4cc(-c5ccccc5S(C)(=O)=O)cnc4n3)c2)o1 [Compound 397]", "readout.value": "200 nM"}

---

Parameter: pEC50. Scope: all listed entries.
System: L. donovani HU3 strain in mouse peritoneal macrophages
assay.remarks: Assay for proliferation of Leishmania parasites in infected mouse peritoneal macrophages (SybrGreen staining, high-content imaging, 5 days)
Type: cell-based, Leishmania donovani
stated.conditions: Leishmania donovani, Peritoneal macrophage, L. donovani in mouse peritoneal macrophages, inhibition of proliferation; read-out: L. donovani Macrophage EC50
pEC50: −log10 of the molar value.

{"test.smiles": "Cc1nc(C)c(C(=O)Nc2ccc(F)c(-c3cn4cc(NC(=O)C5(C)CCC5)cnc4n3)c2)o1", "measured.on": "L. donovani HU3 strain in mouse peritoneal macrophages", "value.comparator": "=", "pEC50": 6.58}
{"test.smiles": "Nc1cc(-c2cnc3nc(-c4cc(NC(=O)N5CCCC5)ccc4F)cn3c2)ccn1", "measured.on": "L. donovani HU3 strain in mouse peritoneal macrophages", "value.comparator": "=", "pEC50": 4.84}
{"test.smiles": "Cc1ncc(C(=O)Nc2cnc3nc(-c4cc(NC(=O)N5CCCC5)ccc4F)cn3c2)o1", "measured.on": "L. donovani HU3 strain in mouse peritoneal macrophages", "value.comparator": "<", "pEC50": 4.30}
{"test.smiles": "CC(C)OC(=O)Nc1cnc2nc(-c3cc(NC(=O)c4cc5cccc(F)c5[nH]4)ccc3F)cn2c1", "measured.on": "L. donovani HU3 strain in mouse peritoneal macrophages", "value.comparator": "<", "pEC50": 4.30}
